Assay: qHTS assay to identify small molecule antagonists of the androgen receptor (AR) signaling pathway using the MDA cell line in the presence of 0.5 nM R1881 - cell viability counter screen (AID 1259242); note: nearly all actives have a fitted effect of over 45% in size
Conditions: MDA-kb2 viability, CellTiter-Fluor protease fluorescence, 16 h; series mostly up to 92.4 µM
Description: U.S. Tox21 Program National Center for Advancing Translational Sciences [NCATS] NIH Chemical Genomics Center [NCGC] U.S. Environmental Protection Agency [EPA] National Institutes of Environmental Health Sciences [NIEHS] National Toxicology Program [NTP] U.S. Food and Drug Administration [FDA] Tox21 Assay Overview: Androgen receptor (AR) is an important member of the nuclear receptor family. Its signaling plays a critical role in AR-dependent prostate cancer and other androgen related diseases. […]
Records with an inconclusive call do not appear. Calls of active or inactive are those of the source. Calls come from the whole dose curve; as a rule, active = well fitted cell-killing curve with a large enough effect in the repeat runs; inconclusive = weak or mixed curves, or effect the other way; inactive = flat fitted curve, though single readings scatter.
API: response.call in active, inactive

input: Which outcome was assigned to CCC[CH2][Sn]([CH2]CCC)([CH2]CCC)[O]C(=O)c1ccccc1 in this test?
output: active

input: Which outcome was assigned to Nc1ccccc1C(=O)OC/C=C/c1ccccc1 in this test?
output: inactive

input: Which outcome was assigned to O=C(O)C1C2CCC(O2)C1C(=O)O (configuration not stated) in this test?
output: inactive

input: Which outcome was assigned to Fc1ccc(Oc2ccnc3cc(Cl)cc(Cl)c23)cc1 in this test?
output: inactive

input: Which outcome was assigned to Cc1ccc(OP(=O)(Oc2ccccc2)Oc2ccccc2)cc1 in this test?
output: inactive

input: Which outcome was assigned to BrCBr in this test?
output: inactive

input: Which outcome was assigned to CCOc1cc(C(C)(C)C)ccc1C1COC(c2c(F)cccc2F)=N1 (configuration not stated) in this test?
output: inactive

---

Target: Thyrotropin receptor (Homo sapiens)
Experiment: qHTS assay to identify small molecule agonists of the thyroid stimulating hormone receptor (TSHR) signaling pathway (AID 1224843); note: nearly all actives have a fitted effect of over 45% in size
Settings: TSHR-HEK293 cells, cAMP HTRF, agonist mode, 30 min; series mostly up to 92.4 µM
Records with an inconclusive call do not appear. Active and inactive are the calls of the source. The call rests on the fitted dose curve.
API: response.call in active, inactive

input: Which outcome was assigned to N#Cc1c(-c2ccc(Cl)cc2)[nH]c(C(F)(F)F)c1Br in this test?
output: inactive

input: Which outcome was assigned to O=C1c2ccccc2C(=O)C1C(=O)C(c1ccccc1)c1ccc(Cl)cc1 (stereo not drawn) in this test?
output: inactive

input: Which outcome was assigned to CNC(C)Cc1ccc2c(c1)OCO2 (stereo not drawn) in this test?
output: inactive

input: Which outcome was assigned to N#Cc1ccc(O)cc1 in this test?
output: inactive

input: Which outcome was assigned to N#CCCSCCC#N in this test?
output: inactive

input: Which outcome was assigned to Oc1cccc(-c2ccccc2)c1 in this test?
output: inactive

input: Which outcome was assigned to CCOC(=O)c1ccccc1S(=O)(=O)NC(=O)Nc1nc(Cl)cc(OC)n1 in this test?
output: inactive

input: Which outcome was assigned to [Cl][Sb]([Cl])[Cl] in this test?
output: inactive

input: Which outcome was assigned to COc1ccc(OC)c(CC(C)N)c1 (stereo not drawn) in this test?
output: inactive

input: Which outcome was assigned to Nc1ccc(Cl)cc1C(=O)c1ccccc1 in this test?
output: inactive

input: Which outcome was assigned to CC(C)(O)c1cnn2c(-c3ccc(F)c(-c4c(F)cccc4C#N)c3)cnc2n1 in this test?
output: inactive

input: Which outcome was assigned to BrCC(Br)c1ccccc1 (stereo not drawn) in this test?
output: inactive

input: Which outcome was assigned to CC1(C)C(/C=C(\Cl)C(F)(F)F)C1C(=O)OC(C#N)c1cccc(Oc2ccccc2)c1 (stereo not drawn) in this test?
output: inactive

input: Which outcome was assigned to c1ccc(OCC2CO2)cc1 (stereo not drawn) in this test?
output: inactive

input: Which outcome was assigned to CC(C)[C@H](C(=O)OC(C#N)c1cccc(Oc2ccccc2)c1)c1ccc(OC(F)F)cc1 (stereo partly drawn) in this test?
output: inactive

input: Which outcome was assigned to C=CCOC(N)=O in this test?
output: inactive

input: Which outcome was assigned to ClC1=C(Cl)[C@]2(Cl)[C@@H]3[C@@H]4C[C@@H]([C@H]5O[C@@H]45)[C@@H]3[C@@]1(Cl)C2(Cl)Cl in this test?
output: active

input: Which outcome was assigned to CCCCCCCCc1ccc(O)cc1 in this test?
output: inactive

input: Which outcome was assigned to Cl/C=C\CCl in this test?
output: inactive

input: Which outcome was assigned to CN(C)c1ccc(N=Nc2ccccc2)cc1 in this test?
output: inactive

input: Which outcome was assigned to CC(=O)C(Cl)(Cl)Cl in this test?
output: inactive

input: Which outcome was assigned to CC(C)C1CCC(Cc2ccc(Cl)cc2)C1(O)Cn1cncn1 (stereo not drawn) in this test?
output: active

input: Which outcome was assigned to COC12CC[C@@]3(C[C@@H]1C(C)(O)C(C)(C)C)[C@H]1Cc4ccc(O)c5c4[C@@]3(CCN1CC1CC1)[C@H]2O5 (stereo partly drawn) in this test?
output: inactive

input: Which outcome was assigned to CCc1ccccc1C in this test?
output: inactive

input: Which outcome was assigned to O=[N+]([O-])c1cc([N+](=O)[O-])c2ccccc2c1 in this test?
output: inactive

input: Which outcome was assigned to CCCN(CCC)c1c([N+](=O)[O-])cc(S(N)(=O)=O)cc1[N+](=O)[O-] in this test?
output: active

input: Which outcome was assigned to C[As+](C)(C)CC(=O)[O-] in this test?
output: inactive

input: Which outcome was assigned to ClC(Cl)=C(Cl)Cl in this test?
output: inactive

input: Which outcome was assigned to CCOC(=O)C1(c2ccccc2)CCN(CCC(C#N)(c2ccccc2)c2ccccc2)CC1 in this test?
output: inactive

input: Which outcome was assigned to Oc1ccc(I)cc1 in this test?
output: inactive

input: Which outcome was assigned to C[C@]12CC[C@@H]3c4ccc(OC(=O)N(CCCl)CCCl)cc4CC[C@H]3[C@@H]1CC[C@@H]2O in this test?
output: inactive

input: Which outcome was assigned to COC(=O)N(C(=O)N1COC2(C(=O)OC)Cc3cc(Cl)ccc3C2=N1)c1ccc(OC(F)(F)F)cc1 (stereo not drawn) in this test?
output: inactive

input: Which outcome was assigned to COc1ccc(/C(=C/C(=O)N2CCOCC2)c2ccc(Cl)cc2)cc1OC in this test?
output: inactive

input: Which outcome was assigned to Oc1cc(Cl)c(Cl)c(Cl)c1 in this test?
output: inactive

input: Which outcome was assigned to CC(C)(C)OO in this test?
output: inactive

input: Which outcome was assigned to S=C(SSC(=S)N1CCCCC1)N1CCCCC1 in this test?
output: inactive

input: Which outcome was assigned to Cc1ccc(CCl)cc1 in this test?
output: inactive

input: Which outcome was assigned to CC(C)C(=O)Cl in this test?
output: inactive

input: Which outcome was assigned to CCCCCCCCCCCCCN1CC(C)OC(C)C1 (stereo not drawn) in this test?
output: inactive

input: Which outcome was assigned to C[C@]12CC[C@H](O)C[C@H]1CC[C@@H]1[C@@H]2C[C@@H](O)[C@]2(C)[C@@H](C3=CC(=O)OC3)CC[C@]12O in this test?
output: inactive

input: Which outcome was assigned to NNC(=O)c1ccccc1 in this test?
output: inactive

input: Which outcome was assigned to Clc1ccc(-c2ccc(Cl)c(Cl)c2Cl)c(Cl)c1Cl in this test?
output: inactive

input: Which outcome was assigned to COc1cc(C=O)cc2c1[C@H](COC(N)=O)[C@]1(OC(C)=O)ON2C[C@H]2[C@@H]1N2C(C)=O in this test?
output: inactive

input: Which outcome was assigned to CCC[CH2][Sn]([CH2]CCC)([CH2]CCC)[O]C(=O)c1ccccc1 in this test?
output: inactive

input: Which outcome was assigned to O=C/C(Cl)=C(/Cl)C(=O)O in this test?
output: inactive

input: Which outcome was assigned to CC(C)CBr in this test?
output: inactive

input: Which outcome was assigned to O=[N+]([O-])c1ccc(Oc2ccc(C(F)(F)F)cc2[N+](=O)[O-])cc1 in this test?
output: inactive

input: Which outcome was assigned to NC(=O)CCl in this test?
output: inactive

input: Which outcome was assigned to CN(CCCC(O)c1cccnc1)N=O (stereo not drawn) in this test?
output: inactive

input: Which outcome was assigned to [CH3][Hg][Cl] in this test?
output: inactive

input: Which outcome was assigned to c1cc[c]([Sb]([c]2ccccc2)[c]2ccccc2)cc1 in this test?
output: inactive

input: Which outcome was assigned to CC(O)C#N (stereo not drawn) in this test?
output: inactive

input: Which outcome was assigned to O=C(O)C1C2CCC(O2)C1C(=O)O (stereo not drawn) in this test?
output: inactive
